Where do these numbers come from? They come from patent US8377913B2.

Would you mind telling me the reported IC50 of each entry?
biological target: recombinant full-length human Vitamin D nuclear receptor (Homo sapiens, UniProt P11473); test: biochemical
Sequence (P11473 whole entry): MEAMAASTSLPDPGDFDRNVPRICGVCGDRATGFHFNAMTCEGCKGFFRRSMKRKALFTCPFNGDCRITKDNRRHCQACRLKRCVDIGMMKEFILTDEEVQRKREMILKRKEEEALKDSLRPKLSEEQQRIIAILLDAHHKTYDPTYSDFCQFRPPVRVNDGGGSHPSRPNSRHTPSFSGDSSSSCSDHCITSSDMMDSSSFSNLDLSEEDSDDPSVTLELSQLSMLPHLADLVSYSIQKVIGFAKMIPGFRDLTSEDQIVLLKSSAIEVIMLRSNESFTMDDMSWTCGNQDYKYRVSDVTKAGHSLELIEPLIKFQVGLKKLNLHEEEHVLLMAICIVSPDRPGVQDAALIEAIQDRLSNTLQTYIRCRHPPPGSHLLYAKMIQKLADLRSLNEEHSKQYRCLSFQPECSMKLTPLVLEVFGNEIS
Numbers only, in nM.

# IC50 of C=C1[C@H](O)CC(=C/C=C2\CCC[C@]3(C)[C@@H]([C@@H](C)COC(=O)C(C)(C)C)CC[C@@H]23)C[C@H]1O = 1330

Each of the following entries comes with a recorded value; kindly state IC50 for each.
1. C=C1[C@H](O)CC(=C/C=C2\CCC[C@]3(C)[C@@H]([C@H](C)CO)CC[C@@H]23)C[C@H]1O
2. C[C@H](/C=C/[C@H](C)C(C)(C)O)[C@H]1CC[C@H]2/C(=C/C=C3C[C@@H](O)C[C@H](O)C3)CCC[C@]12C [Paricalcitol, paricalcitol, reference compound]

Given back:
1. 890
2. 14.6
